system_under_test: human ether-à-go-go-related gene (hERG) potassium channel (human);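 also: peak tail current of the secondary pulse compared with the same well before compound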
Sequence (Q12809 whole entry, looked up): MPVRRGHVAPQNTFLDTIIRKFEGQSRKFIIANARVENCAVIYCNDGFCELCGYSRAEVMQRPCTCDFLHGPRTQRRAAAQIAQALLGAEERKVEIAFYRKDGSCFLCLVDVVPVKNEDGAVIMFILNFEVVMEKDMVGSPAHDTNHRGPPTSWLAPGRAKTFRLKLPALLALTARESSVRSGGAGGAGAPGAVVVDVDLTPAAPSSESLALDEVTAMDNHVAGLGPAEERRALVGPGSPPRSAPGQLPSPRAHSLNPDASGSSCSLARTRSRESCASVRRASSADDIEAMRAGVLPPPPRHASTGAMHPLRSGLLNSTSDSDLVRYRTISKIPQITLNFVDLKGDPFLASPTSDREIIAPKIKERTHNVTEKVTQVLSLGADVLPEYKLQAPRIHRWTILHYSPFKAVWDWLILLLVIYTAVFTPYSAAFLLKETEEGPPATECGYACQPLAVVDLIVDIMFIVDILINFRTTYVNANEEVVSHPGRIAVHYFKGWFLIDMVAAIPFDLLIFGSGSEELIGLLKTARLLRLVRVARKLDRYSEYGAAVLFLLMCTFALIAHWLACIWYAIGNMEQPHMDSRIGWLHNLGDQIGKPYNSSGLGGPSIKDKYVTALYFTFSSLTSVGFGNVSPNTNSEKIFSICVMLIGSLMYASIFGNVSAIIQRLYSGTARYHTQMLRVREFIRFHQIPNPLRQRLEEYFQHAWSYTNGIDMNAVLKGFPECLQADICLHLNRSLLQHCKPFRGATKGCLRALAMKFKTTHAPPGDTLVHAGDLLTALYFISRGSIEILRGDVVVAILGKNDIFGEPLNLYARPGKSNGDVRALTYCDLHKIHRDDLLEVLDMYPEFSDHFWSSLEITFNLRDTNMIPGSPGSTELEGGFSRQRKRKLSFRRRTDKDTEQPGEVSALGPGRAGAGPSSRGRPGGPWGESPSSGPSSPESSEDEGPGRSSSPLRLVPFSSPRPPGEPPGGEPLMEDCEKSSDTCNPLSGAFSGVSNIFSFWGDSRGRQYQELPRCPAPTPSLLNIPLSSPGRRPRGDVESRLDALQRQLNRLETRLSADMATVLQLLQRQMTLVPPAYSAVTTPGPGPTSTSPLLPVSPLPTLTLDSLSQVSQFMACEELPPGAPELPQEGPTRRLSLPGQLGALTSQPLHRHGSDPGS
assay_explanation: primary screen, population patch clamp on CHO cells stably expressing hERG; higher = less effect of the substance
In all, about 310,000 compounds went through this assay and about 14,000 (4.5%) showed an effect of 50% or more. Effects have a minus sign here. The entries come from a sample that favours strong results as a whole.
Measured hERG current change (%, negative = inhibition) at 10uM accompanies every entry in the list below.
property_name: hERG current change (%, negative = inhibition) at 10uM (%)

In [3]: df
Out[3]:
                                   compound                         system_under_test  unit_name  data_value
0  CC(C)CN(C(=O)COC(=O)CCSc1ccc(F)cc1)c1c(N)n(Cc2ccccc2)c(=O)[nH]c1=O  human ether-à-go-go-related gene (hERG) potassium channel (human)          %        10.1
1  COc1ccc(C(=O)N/N=C/c2sc(=O)n(Cc3cccc(C(=O)O)c3)c2Cl)cc1  human ether-à-go-go-related gene (hERG) potassium channel (human)          %        -1.9
2      CCCn1cc(NC(=O)c2cc(-c3ccccc3)on2)cn1  human ether-à-go-go-related gene (hERG) potassium channel (human)          %       -21.5
3          COc1cc(NC(=O)c2cccnc2SC)cc(OC)c1  human ether-à-go-go-related gene (hERG) potassium channel (human)          %        10.2
4  COc1ccc(OC(C)C(=O)N2CCC(C)CC2)cc1 (stereo not shown)  human ether-à-go-go-related gene (hERG) potassium channel (human)          %       -5.47
5  COc1ccc2cc(C(C)C(=O)N3CCC(C(N)=O)CC3)ccc2c1 (stereo not shown)  human ether-à-go-go-related gene (hERG) potassium channel (human)          %        17.1
6  COCc1ccc([C@@H]2C[C@H]3CN(Cc4cccnc4)C(=O)[C@]34CCCN24)o1  human ether-à-go-go-related gene (hERG) potassium channel (human)          %       -3.38
7  O=C(Nc1ccc(Br)cc1Br)C1CC(=O)N(Cc2ccccc2)C1 (stereo not shown)  human ether-à-go-go-related gene (hERG) potassium channel (human)          %        10.7
8  COc1ccc2cc(C(C)C(=O)N3CCC(C)CC3)ccc2c1 (stereo not shown)  human ether-à-go-go-related gene (hERG) potassium channel (human)          %       -71.9
9  CCOc1ccc(C(=O)COC(=O)CNC(=O)C2CCCCC2)cc1  human ether-à-go-go-related gene (hERG) potassium channel (human)          %     -0.0501

###

system_under_test: human ether-à-go-go-related gene (hERG) potassium channel (human);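 also: peak tail current of the secondary pulse compared with the same well before compound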
assay_explanation: primary screen, population patch clamp on CHO cells stably expressing hERG; higher = less effect of the substance
The whole screen tested about 310,000 compounds, of which about 14,000 (4.5%) showed an effect of 50% or more. Effects have a minus sign here. What follows is part of a selection rich in strong results, with near analogues and random picks from the rest.
hERG current change (%, negative = inhibition) at 10uM reference
property_name: hERG current change (%, negative = inhibition) at 10uM (%)

>>> df
                                   compound  data_value
0  COc1ccc(C(=S)N2CCOCC2)cc1OC(=O)c1cccc([N+](=O)[O-])c1       -39.9
1  COc1ccc(C(=S)N2CCOCC2)cc1OS(=O)(=O)c1ccc(Br)cc1         -70
2  COc1ccc(C(=O)N2CCCC2(C#N)c2ccccc2)cc1[N+](=O)[O-] (stereo not drawn)         -41
3  COc1ccc(S(=O)(=O)Oc2ccc(C(=S)N3CCOCC3)cc2OC)cc1      -0.365
4  COc1ccc(C(=S)N2CCOCC2)cc1OC(=O)c1ccc([N+](=O)[O-])cc1         -63
5  CCOC(=O)c1cc(-c2ccccc2C)nn1CC1CC(c2ccc(OC)cc2)=NO1 (stereo not drawn)        3.54
6  COc1ccc(C(=S)N2CCOCC2)cc1OC(=O)c1ccc([N+](=O)[O-])cc1[N+](=O)[O-]         -52
7  COc1cc(C(=S)N2CCOCC2)cc(OC)c1OC(=O)c1ccc([N+](=O)[O-])cc1[N+](=O)[O-]       -4.69
8  O=C(c1ccc(OC2CCN(Cc3ccccc3OC(F)F)CC2)cc1)N1CCCC1       -3.42

###

system_under_test: human ether-à-go-go-related gene (hERG) potassium channel (human);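 also: peak tail current of the secondary pulse compared with the same well before compound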
assay_explanation: primary screen, population patch clamp on CHO cells stably expressing hERG; higher = less effect of the substance
The whole screen tested about 310,000 compounds, of which about 14,000 (4.5%) showed an effect of 50% or more. Effects have a minus sign here. The full list was thinned out, with strong results kept by preference.
As shown below, each of these molecules has a reported hERG current change (%, negative = inhibition) at 10uM value.
property_name: hERG current change (%, negative = inhibition) at 10uM (%)

                                    molecule                         system_under_test  unit_name  data_value
 0  COc1ccc(C(=O)COC(=O)Cc2n[nH]c(=O)c3ccccc23)c(OC)c1  human ether-à-go-go-related gene (hERG) potassium channel (human)          %        16.7
 1  CC(C)CN(C(=O)COC(=O)Cc1ccc(Cl)cc1)c1c(N)n(Cc2ccccc2)c(=O)[nH]c1=O  human ether-à-go-go-related gene (hERG) potassium channel (human)          %        5.02
 2  Cc1ccc(C(=O)CN(CCCC(N)=O)S(=O)(=O)c2ccc([N+](=O)[O-])cc2)cc1  human ether-à-go-go-related gene (hERG) potassium channel (human)          %       -66.7
 3      CCCNC(=O)Nc1ccccc1C(=O)Nc1ccc(OC)cc1  human ether-à-go-go-related gene (hERG) potassium channel (human)          %        2.77
 4  O=C(CN1C(=O)c2cccc3cccc(c23)C1=O)N1CCCCC1  human ether-à-go-go-related gene (hERG) potassium channel (human)          %      0.0571
 5  CN(CC(=O)O/N=C(\N)c1ccc([N+](=O)[O-])cc1)S(=O)(=O)c1ccc2ccccc2c1  human ether-à-go-go-related gene (hERG) potassium channel (human)          %       -12.6
 6  CCOC(=O)c1c(NC(=O)CSc2nnc(Cc3csc(N)n3)n2C)sc(C)c1C  human ether-à-go-go-related gene (hERG) potassium channel (human)          %       -51.8
 7  O=C(N/N=C/c1cn(-c2ccccc2)nc1-c1cccs1)c1ccncc1  human ether-à-go-go-related gene (hERG) potassium channel (human)          %       -10.2
 8  CN(CC(=O)NCc1cccs1)S(=O)(=O)c1cccc2nsnc12  human ether-à-go-go-related gene (hERG) potassium channel (human)          %       0.981
 9  CCOC(=O)N1CCN(C(=O)Cn2ccc3c(OC)cccc3c2=O)CC1  human ether-à-go-go-related gene (hERG) potassium channel (human)          %        6.78
10  CCOc1ccccc1NC(=O)c1cnc(NS(=O)(=O)c2ccccc2)nc1  human ether-à-go-go-related gene (hERG) potassium channel (human)          %        17.8
11  COC(=O)C1(C)NC(c2ccco2)C2C(=O)N(c3ccc(C)cc3)C(=O)C21 (stereo not drawn)  human ether-à-go-go-related gene (hERG) potassium channel (human)          %       -22.5
12        O=C(OCc1c(F)cccc1Cl)c1cnc2ccccc2n1  human ether-à-go-go-related gene (hERG) potassium channel (human)          %        17.6
13  CC(C)c1ccc(NC(=O)CNC(=O)Cn2ccc3ccccc3c2=O)cc1  human ether-à-go-go-related gene (hERG) potassium channel (human)          %        16.7
14  COc1ccccc1C1/C(=C(\O)c2ccc3c(c2)OCCO3)C(=O)C(=O)N1Cc1cccnc1 (stereo not drawn)  human ether-à-go-go-related gene (hERG) potassium channel (human)          %        18.9
15  Cc1ccccc1NC(=O)NC1CCS(=O)(=O)C1 (stereo not drawn)  human ether-à-go-go-related gene (hERG) potassium channel (human)          %        16.6
16  CCC(C)(C)NC(=O)C(c1cccc(OC)c1OC)N(CCC(C)C)C(=O)CCC(=O)Nc1cc(C)on1 (stereo not drawn)  human ether-à-go-go-related gene (hERG) potassium channel (human)          %        11.6
17       O=C1/C(=C\c2ccco2)SC(=S)N1Cc1ccccc1  human ether-à-go-go-related gene (hERG) potassium channel (human)          %        10.8
18  Cc1nn2c(-c3cccc(NC(=O)c4ccco4)c3)nnc2c2ccccc12  human ether-à-go-go-related gene (hERG) potassium channel (human)          %       -5.38
19  Cn1c(N)c(C(=O)COC(=O)c2nc(Cl)ccc2Cl)c(=O)n(C)c1=O  human ether-à-go-go-related gene (hERG) potassium channel (human)          %       -11.2
20  CCOC(=O)CN1C(=O)C(O)=C(C(C)=O)C1c1ccccc1 (stereo not drawn)  human ether-à-go-go-related gene (hERG) potassium channel (human)          %        11.3
21  Cl.Nn1cnnc1N/N=C/c1ccc(Cl)c([N+](=O)[O-])c1  human ether-à-go-go-related gene (hERG) potassium channel (human)          %       -26.6
22  Cc1nc(NC(=O)CSc2nnc(Cn3nnc4ccccc43)n2C)sc1C  human ether-à-go-go-related gene (hERG) potassium channel (human)          %       0.783
23  CCOC(=O)c1c(NC(=O)CSc2nnc(CNc3ccc(OC)cc3)n2C)sc(C)c1C  human ether-à-go-go-related gene (hERG) potassium channel (human)          %       -21.7
24  CCOC(=O)Cc1csc(NC(=O)CSc2nnc(Cc3csc(N)n3)n2C)n1  human ether-à-go-go-related gene (hERG) potassium channel (human)          %       -1.19
25  CCOc1ccc(NC(=S)N2CCN(S(=O)(=O)c3ccccc3)CC2)cc1  human ether-à-go-go-related gene (hERG) potassium channel (human)          %       -31.6
26  CN(CC(=O)NCc1ccc(F)cc1)S(=O)(=O)c1cccc2nsnc12  human ether-à-go-go-related gene (hERG) potassium channel (human)          %       -21.1
27  O=C(NCc1ccc(F)cc1)C1CCCN(C(=O)Nc2ccccc2)C1 (stereo not drawn)  human ether-à-go-go-related gene (hERG) potassium channel (human)          %       -38.5
28  COc1cc(/C=N/N2CCN(c3ccccc3)CC2)cc(OC)c1OC(C)=O  human ether-à-go-go-related gene (hERG) potassium channel (human)          %       -39.4
29  O=C(Cc1ccc(S(=O)(=O)N2CCCC2)s1)NC1CCCCCC1  human ether-à-go-go-related gene (hERG) potassium channel (human)          %       -31.4
30  COc1cccc(C(=O)N2CCN(C(=O)Cc3ccccc3)CC2)c1.O=C(O)C(=O)O  human ether-à-go-go-related gene (hERG) potassium channel (human)          %    -0.00122
31  NC(N)=N/N=C/c1cn(-c2ccccc2)nc1-c1cccs1.O=[N+]([O-])O  human ether-à-go-go-related gene (hERG) potassium channel (human)          %       -62.1
32         COc1ccccc1CCNS(=O)(=O)c1cn(C)nc1C  human ether-à-go-go-related gene (hERG) potassium channel (human)          %        1.14
33        CC(=O)N(C)c1ccc(NC(=O)N2CCOCC2)cc1  human ether-à-go-go-related gene (hERG) potassium channel (human)          %        4.94
34  CCN(CC(=O)NC1CCS(=O)(=O)C1)S(=O)(=O)c1cc(C)ccc1C (stereo not drawn)  human ether-à-go-go-related gene (hERG) potassium channel (human)          %        10.2
35  O=[N+]([O-])c1ccc(Oc2c(F)c(F)nc(N3CCCC3)c2F)cc1  human ether-à-go-go-related gene (hERG) potassium channel (human)          %       -19.7
36          Nc1cc(=O)[nH]c(=O)n1-c1cccc(F)c1  human ether-à-go-go-related gene (hERG) potassium channel (human)          %        18.4
37  O=C(O)CC1SC(=Nc2cccc(C(F)(F)F)c2)NC1=O (stereo not drawn)  human ether-à-go-go-related gene (hERG) potassium channel (human)          %        5.13
38    NC(=O)N/N=C/c1cn(-c2ccccc2)nc1-c1cccs1  human ether-à-go-go-related gene (hERG) potassium channel (human)          %       -38.8

Measured values drawn from paper PMC4336329 for this set.
